Hey, just so you know, these numbers are from patent US20240400689A1.

# Experimental target: T1, human CD276 protein (human, UniProt Q5ZPR3 29-534)
# T1 construct: whole, on cells; for SKOV3 and the other cancer lines the protein is the cells' own; also called B7-H3; B7H3
# T1 sequence (looked up): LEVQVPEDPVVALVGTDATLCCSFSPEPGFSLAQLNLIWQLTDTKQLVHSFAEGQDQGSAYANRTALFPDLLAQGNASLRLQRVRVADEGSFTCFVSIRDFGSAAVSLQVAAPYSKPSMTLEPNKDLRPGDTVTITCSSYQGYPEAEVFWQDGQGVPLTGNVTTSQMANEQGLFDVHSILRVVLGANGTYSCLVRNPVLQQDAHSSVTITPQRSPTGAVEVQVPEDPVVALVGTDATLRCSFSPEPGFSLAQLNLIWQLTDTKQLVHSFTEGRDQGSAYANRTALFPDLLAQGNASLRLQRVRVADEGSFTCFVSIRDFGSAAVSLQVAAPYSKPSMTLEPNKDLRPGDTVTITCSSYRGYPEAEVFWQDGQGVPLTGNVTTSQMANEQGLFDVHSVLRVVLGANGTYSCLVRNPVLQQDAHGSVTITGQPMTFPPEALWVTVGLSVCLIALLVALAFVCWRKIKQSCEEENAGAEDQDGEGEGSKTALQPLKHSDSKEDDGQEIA
# Measurement description: FACS on CHO-S-hCD276 cells
Binary label based on FACS MFI with cut-off 100000: below gives 1, not below gives -1.

INSERT INTO results (binder, label) VALUES
  ('9-G12-D6-A11 (antibody, V domains shown, mouse monoclonal antibody (hybridoma)) VH: DVQLQVSGPGLVKPSQSLSLTCSVAGYSITSDYYWNWIRQFPGNKLEWMGYISYDGTNNYNPSLKNRISITRDTSKGQFFLKFNSVTTEDTATYYCARGKDGSYYFDYWGQGTTLTVSS VL: QAVVTQESALTTSPGGTVILTCRSSTGAVTTSNYANWVQEKPDHLFTGLIGGTSNRAPGVPVRFSGSLIGDKAALTITGAQTEDDAMYFCALWYRTHYVFGGGTMVTVL', 1),
  ('9-B9-H11-G7 (antibody, V domains shown, mouse monoclonal antibody (hybridoma)) VH: DVQLQESGPGLVKPSQSLSLTCSVTGYSITSGYYWNWIRQFPGNKLEWMVYISYDGTNNYNPSLKNRISITRDTSKNQFFLKLNSVTTEDTATYYCARGDSNSYYFDYWGQGTTLTVSS VL: QAVVTQESALTTSPGGTVILTCRSSTGAVTTSNYANWVQEKPDHLFTGLIGGTSNRAPGVPVRFSGSLIGDKAALTITGAQTEDDAMYFCALWYRTHYVFGGGTKVTVL', 1),
  ('6-H11-G5-D8 (antibody, V domains shown, mouse monoclonal antibody (hybridoma)) VH: EVQLQESGPELVKPGTSVKLSCKASGYTFTSYDINWVRQRPEQGLEWIGWIFPGNGDTYYNEKFKGKATLTSDKSSSTAYMQLSRLTSEDSAVYFCARDLRLGTFDYWGQGTTLTVSS VL: QIVLTQSPEIMSASPGEKVTMTCSASSSVSYIHWYQQKSGTSPKRWIYDTSKLASGVPARFSGSGSGTSYSLTIRSMEAEDAATYYCQQGSSNPRTFGGGTKLELK', -1);

Task item: Given the entry 8-C3-E3-F3 (antibody, V domains shown, mouse monoclonal antibody (hybridoma)) VH: EVQLVESGGGLVQPGGSLKLSCAASGFTFSNYGLSWVRLTPDKRLEVVATIGSYGGNTYYPDSVKGRFTISRDNAKNTLYLQMSSLKSEDTAIYYCARDIYYGNSEAWFAYWGQGTLVTVSA VL: DIVMTQAAFSNPVTLGTSASISCRSSKSLLHSNGITYLYWYLQKPGQSPQLLIYQMSNLASGVPDRFSSSGSETDFTLRISRVEAEDVGVYYCAQNLELPWTFGGGTKLEIK , would its reported FACS MFI be below 100000?
Reply: 1

Task item: Given the entry 16-G3-D10-C10 (antibody, V domains shown, mouse monoclonal antibody (hybridoma)) VH: QIQLVQSGPELKKPGETVKISCKASGYTFRNYGMNWVKQGPGKDLKWMGWINPYTGEPTYIGDFKGRFAFSLETSANSAYLQINNLNNEDMATYFCARDDGYWYTMDYWGQGTSVTVSS VL: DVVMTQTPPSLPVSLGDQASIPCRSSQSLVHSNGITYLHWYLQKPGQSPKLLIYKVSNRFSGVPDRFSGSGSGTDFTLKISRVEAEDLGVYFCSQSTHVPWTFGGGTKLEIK , would its reported FACS MFI be below 100000?
Reply: 1
